Please respond with reported IC90 for every item in the list.
- subject_of_test: Perforin-1 (Homo sapiens)
- test_summary: Inhibition of perforin-dependent cell killing activity of human KHYG-1 cells assessed as reduction in cytotoxicity against K562 cells preincubated for 20 mins followed by 51Cr labelled K562 cells addition and measured after 4 hrs by gamma counter analysis
- Format: cell-based
- stated_conditions: time 260.0 min
Field: value (include unit after the number)

Item Cc1ccc(S(=O)(=O)c2ccc3c(c2)CCO3)cc1-c1cnc(N)nc1 was tested on Perforin-1 (Homo sapiens); the reported IC90 is 160 nM

Item Cc1cc(S(=O)(=O)c2ccc(C)c(-c3cnc(N)nc3)c2)ccc1C(N)=O was tested on Perforin-1 (Homo sapiens); the reported IC90 is 155 nM

Item Cc1ccc(S(=O)(=O)c2ccc3c(c2)CCN3)cc1-c1ccc2n[nH]cc2c1 was tested on Perforin-1 (Homo sapiens); the reported IC90 is 1040 nM
